Molecular target: EcNFeoB (GTPase domain of Escherichia coli FeoB) (Escherichia coli, UniProt P33650, T151A)
Construct: soluble N-terminal GTPase domain, residues 1-270; GST fusion (pGEX-4T-1) in E. coli BL21(DE3), GST removed by thrombin, size exclusion; an alternate S150A-TEV construct (TEV-cleaved) was also made
Assay: stopped-flow fluorescence, koff/kon from kobs versus protein concentration
Type: binding
Details: 20 mM Tris pH 8.0, 100 mM NaCl, 100 mM MgCl2, 20 °C; labelled compound (mant-GMPPNP; table heading prints GMPPNP)
value-type: Kd
Express your answer as a number followed by its unit.

Task: For the substance mant-GMPPNP , give its reported Kd.
Output: 27 µM
